system: U-251; assay: NCI tumour cell line growth inhibition, 48 h
Calls of active or inactive are those of the source. Cut-off read from the data, not from the text of the source: active = GI50 up to about 1.1 µM and inactive = higher.
Respond only with the outcome that fits, drawn from active, inactive

Observe how each entry below is paired with its result.
CC(/C=N\NC(=S)N(C)C)=N/NC(=S)N(C)C: active
COc1ccccc1/C=C\C(=O)C1COCN1 (configuration not stated): inactive
O=C1C(CN2CCOCC2)CCCC1CN1CCOCC1 (configuration not stated): inactive
O=C(O)c1cc(NCc2cc(O)ccc2O)ccc1O: inactive
COc1cc(/C=C/c2ccc(OC)c(OC)c2)oc(=O)c1: inactive

Ask | In this assay, the call recorded for `C(=N\NC1=NCCN1)/c1cccc2cc3ccncc3nc12` was what?
Reply | inactive

Ask | GET /call?item= `Cc1c2c(cc[n+]1C)O[B-](c1ccccc1)(c1ccccc1)O2` returns the recorded outcome of this test.
Reply | inactive
